Hey, just so you know, these numbers are from patent US20240425587A1.

# study-target: T1, murine PILRB, ectopically expressed on 293 cells (murine, UniProt Q2YFS2 29-224)
# T1 construct: whole, on cells; also called mB
# T1 sequence (Q2YFS2 29-224): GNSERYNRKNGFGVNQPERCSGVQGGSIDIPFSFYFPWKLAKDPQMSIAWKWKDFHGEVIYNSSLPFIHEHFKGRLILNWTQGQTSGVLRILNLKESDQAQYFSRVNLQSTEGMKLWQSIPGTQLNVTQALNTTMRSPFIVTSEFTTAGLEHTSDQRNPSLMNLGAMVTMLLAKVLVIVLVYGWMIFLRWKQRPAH
# assay-method-text: flow cytometry, 293 cells expressing target
quantity: binding result

E3 (antibody, V domains shown, second hybridoma campaign) VH: QAYLQQSGAELVRSGASVKMSCKASGNTFTYYNLHWIRQTPGQGLEWIGYIFPGNGDAYYNQNFKGKATLTADTSSSTAYMQISSLTFEDSAVYFCARSPHYYGSGFDYWGQGTPLTVSS VL: DIQMTQSSSYLSVSLGGGVTITCKASDHINNWLAWYQQKPGNAPRLLISGATSLETGVPSRFSGSGSGKDYTLSITSLQTEDVATYYCQQYWSTPWTFGGGTKLEIK    no binding
A15 (antibody, V domains shown, phage campaign) VH: QVQLVQSGAEVKKPGASVKVSCKASGGTFSNYGLTWVRQAPGQGLEWMGWINLNSGGTYYAQKFQGRVTMTRDTSTSTVYMELSSLRSEDTAVYYCARDRYSSGWYEGDAFDIWGQGTMVTVSS VL: DIQMTQSPSSLSASVGDRVTITCRASQGISNWLAWYQQKPGKAPKLLIYAASSLQSGVPSRFSGSGSGTDFTLTISSLQPEDFATYYCQQSYSTPWTFGPGTKVDIK    no binding
D5 (antibody, V domains shown, second hybridoma campaign) VH: EVKLDETGGGLVQPGRPMKLSCVASGFTFSDYWMNWVRQSPEKGLEWVAQIRNKLYNYETYYSDSVKGRFTISRDDSKSSVYLQMNNLRAEDMGIYYCTVGLAMDYWGQGTSVTVSS VL: DIQMTQSSSSFSVSLGDRVTITCKASEDIYNRLAWYQQKPGNAPRLLISGATSLETGVPSRFSGSGSGKEYTLNITSLQTEDVATYYCQQYWSTPTFGGGTKLEIK    no binding
